- tested.system: human tyrosinase (Homo sapiens, UniProt P14679)
- Construct: endogenous in cells
- Sequence (P14679 19-529): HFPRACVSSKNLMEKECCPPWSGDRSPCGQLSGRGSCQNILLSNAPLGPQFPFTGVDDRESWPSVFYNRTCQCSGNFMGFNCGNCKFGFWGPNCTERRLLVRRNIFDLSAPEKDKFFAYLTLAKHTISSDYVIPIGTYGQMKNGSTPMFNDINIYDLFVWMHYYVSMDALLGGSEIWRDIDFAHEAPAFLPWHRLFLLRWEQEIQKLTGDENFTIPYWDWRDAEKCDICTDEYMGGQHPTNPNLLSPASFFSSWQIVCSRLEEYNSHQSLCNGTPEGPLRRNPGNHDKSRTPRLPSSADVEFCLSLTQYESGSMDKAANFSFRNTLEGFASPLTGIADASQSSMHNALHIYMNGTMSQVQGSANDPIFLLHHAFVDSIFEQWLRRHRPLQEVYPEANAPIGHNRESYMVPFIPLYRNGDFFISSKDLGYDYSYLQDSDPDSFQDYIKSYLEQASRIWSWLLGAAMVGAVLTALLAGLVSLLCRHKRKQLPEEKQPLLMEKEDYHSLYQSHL
- test.protocol: Tyrosinase (DOPA oxidase) assay using cell lysate
- experimental.parameters: SKMEL 188 human melanoma cell lysate; L-DOPA 100 μg/ml; 8 hr incubation; read at 405 nm
quantity.kind: pIC50
Numbers only, as −log10 of the molar value.

In: For Oc1ccc(C2CCC(O)CC2)c(O)c1 (stereo not shown) [4-(2,4-dihydroxyphenyl)cyclohexanol] , what is its reported pIC50?
Out: 6.70
